FYI, the data here is from patent US20240317859A1.

Could you please report measured pKd for the items listed next?
Biological target: Human PD-1/PDCD1 Protein (PD-1) (human, UniProt Q15116 25-167, limits assumed)
Sequence (Q15116 25-167 limits assumed): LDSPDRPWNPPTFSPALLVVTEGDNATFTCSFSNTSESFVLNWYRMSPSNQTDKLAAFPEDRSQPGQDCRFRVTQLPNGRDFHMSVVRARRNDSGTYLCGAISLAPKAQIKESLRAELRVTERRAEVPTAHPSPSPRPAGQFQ
Assay: SPR, Biacore 8K; PD-1 captured by anti-His antibody, antibody in flow
Answers are plain numbers, as −log10 of the molar value.

Check out these entries, answers already filled in.
binder | assay.result
HM297-I6 (antibody, human IgG1, V domains shown, also called humanized HM297, VH ver.I / VL ver.6) VH: QVQLVQSGPEVKKPGASVKVVCKASGYTFTDYNVDWVRQVPGQGLEWMGDIDPNNGGTIYNQKFKDRVTMTVDTSTRTAYMELRSLRSDDTAVYYCARWRGAMDYWGQGTLVTVSS VL: DIQMTQSPSSLSASVGDRVTITCRASQDIDNYLKWYQQKPGKAPKLLIYDTSRLHSGVPSRFSGSGSGTDYTLTISSLQPEDFATYYCQQGYTLPWTFGQGTKLEIK | 8.46
HM297-F5 (antibody, human IgG1, V domains shown, also called humanized HM297, VH ver.F / VL ver.5) VH: QVQLVQSGPEVKKPGASVKIPCKASGYTFTDYNVDWVRQSHGKSLEWIGDIDPNNGGTIYNQKFKDRVTMTVDKSTRTAYMELRSLRSDDTAVYYCARWRGAMDYWGQGTLVTVSS VL: DIQMTQSPSSLSASVGDRVTITCRASQDIDNYLKWYQQKPDGTVKLLIYDTSRLHSGVPSRFSGSGSGTDYTLTISSLKQEDFATYYCQQGYTLPWTFGQGTKLEIK | 8.63
HM297-G4 (antibody, human IgG1, V domains shown, also called humanized HM297, VH ver.G / VL ver.4) VH: QVQLVQSGPEVKKPGASVKIPCKASGYTFTDYNVDWVRQVPGQGLEWIGDIDPNNGGTIYNQKFKDKATLTVDKSTRTAYMELRSLRSDDTAVYYCARWRGAMDYWGQGTLVTVSS VL: DIQMTQTTSSLSASVGDRVTITCRASQDIDNYLKWYQQKPDGTVKLLIYDTSRLHSGVPSRFSGSGSGTDYTLTISSLKQEDFATYYCQQGYTLPWTFGQGTKLEIK | 9.35

Switching to the query record.
Data request: Tell us which pKd value is on record for HM268-K7 (antibody, human IgG1, V domains shown, also called humanized HM268, VH ver.K / VL ver.7) VH: QVQLVQSGPEVKKPGASVKVVCKTSGYTFTSYYIQWLKQRPGQGLEWIGWIYFGDASTKYNEKFKGRVTMTADKSTSTAYMELRSLRSDDTAVYYCASYYGSYFDYWGQGTTVTVSS VL: DIQMTQNTSSLSASVGDRVTITCRASQDISNYLNWYQQKPDGTVKLLIYSTSRLHSGVPSRFSGSGSGTDYTLTISSLEQEDFATYYCQQGSTLPFTFGQGTKLEIK
Data returned: 11.16
